System: UACC-62
Test: NCI tumour cell line growth inhibition, 48 h
Activity calls are given as the source filed them. No stated cut-off is given here; in the data, active = GI50 up to about 1.1 µM and inactive = higher.
Hi! Could you answer with just one of these? yes (1) for active, no (0) for inactive

Example results:
O=C(/C=C/c1ccccc1)CCC1C(=O)NC(=O)NC1=O    no (0)
COc1ccc(N2C(=O)/C(=C(\C)c3cc4ccccc4oc3=O)N=C2c2cc([N+](=O)[O-])ccc2Cl)cc1    no (0)
CC(C)(C)C1C=C(Sc2ccccc2)C(=O)O1 (configuration not stated)    no (0)
Oc1c(-c2ccccc2)nc2ccccn12    no (0)
Cc1ccccc1C(=O)c1cc(O)ccc1O    no (0)
COc1cc([C@@H]2c3cc4c(c(O)c3C[C@H]3COC(=O)[C@@H]32)OCO4)cc(OC)c1O    yes (1)
NNc1nnc(-c2nnc(NN)o2)o1    no (0)
Nc1nc(Cl)cc(NCCC2(CO)CCC2)n1    no (0)
COc1cccc2c1C(=O)c1c(O)c3c(c(O)c1C2=O)C[C@@](O)(C(=O)CN1CCOCC1)C[C@@H]3OC1CC(N)C(O)C(C)O1 (some centres not stated)    no (0)
CC1OC(OC2C(O[C@H]3CC[C@@]4(C)[C@@H](CC[C@@H]5[C@@H]4CC[C@]4(C)[C@@H]6[C@H](C[C@@H]54)O[C@]4(CC[C@@H](C)CO4)[C@H]6C)C3)OC(CO)C(OC3OC(CO)C(O)C(OC4OCC(O)C(O)C4O)C3OC3OCC(O)C(O)C3O)C2O)C(O)C(O)C1O (some centres not stated)    yes (1)

Shift focus to the following entry.
// query Which outcome did this test record for the compound c1cc(-c2ncc(-c3ccc4c(c3)CCCO4)o2)ccn1 ?
// result no (0)

====

Test system: TK-10
Test: NCI tumour cell line growth inhibition, 48 h
Calls of active or inactive are those of the source. Cut-off read from the data, not from the text of the source: active = GI50 up to about 1.1 µM and inactive = higher.
Hi! Could you answer with just one of these? t for active, f for inactive

Example results:
CC(=O)c1ccc2c(c1)CC1(C2)Cc2ccccc2C1=O (centres undefined)    f
CCOC(=O)c1cc([N+](=O)[O-])cc([N+](=O)[O-])c1Sc1[nH]cnc2ncnc1-2    f
CCCCCC(/C=N/NC(N)=S)C(O)(C(F)(F)F)C(F)(F)F (centres undefined)    f

Shift focus to the following entry.
// query Which outcome did this test record for the molecule CCOc1ccc(/C=C2\NC(=S)N(/C=C3\C(=O)Oc4ccccc4C3=O)C2=O)cc1 ?
// result f

====

Test system: COLO 205
Assay: NCI tumour cell line growth inhibition, 48 h
The source made the active and inactive calls. No stated cut-off is given here; in the data, active = GI50 up to about 1.1 µM and inactive = higher.
Hi! Could you answer with just one of these? active, inactive

Example results:
CCN(CC)COC(=S)S    inactive
COC(=O)C12C3C=CC(O3)C1C1C=CC2O1 (stereo unspecified)    inactive
CCOc1ccc(/C=C2\NC(=S)N(/C=C3\C(=O)Oc4ccccc4C3=O)C2=O)cc1    inactive
O=c1[nH]c(=O)n(C2CC(O)C(CO)O2)cc1C#Cc1c(F)c(F)c(F)c(F)c1F (stereo unspecified)    inactive
OCC1CC2CC1C1(C2)OCCO1 (stereo unspecified)    inactive
COC(=O)c1ccc2c(c1)CC1(C2)Cc2cc3c(cc2C1=O)CCC3 (stereo unspecified)    inactive

// query Which outcome did this test record for the compound C=C(C)[C@@]1(O)O[C@H]2C[C@@]3(C)OC(=CC3=O)/C(C)=C\[C@@H]3OC(=O)[C@@]1(C)[C@H]32 ?
// result inactive

// query Which outcome did this test record for the compound Sc1ncc2[nH]nnc2n1 ?
// result inactive

// query Which outcome did this test record for the compound CC(C)(C)C1C=C(Sc2ccccc2)C(=O)O1 (stereo unspecified) ?
// result inactive

// query Which outcome did this test record for the compound Nc1nn2c(C(Br)Br)cc(C(Br)Br)nc2c1[N+](=O)[O-] ?
// result active

// query Which outcome did this test record for the compound CC(C)=CCc1cc(C2COc3cc4c(c(O)c3C2=O)C=CC(C)(C)O4)c(O)cc1O (stereo unspecified) ?
// result inactive

====

System: 786-0
Experiment: NCI tumour cell line growth inhibition, 48 h
Activity calls are given as the source filed them. Cut-off read from the data, not from the text of the source: active = GI50 up to about 1.1 µM and inactive = higher.
Hi! Could you answer with just one of these? active, inactive

Example results:
CC1=CC2C(C=C1)S(=O)(=O)N1CC21c1ccccc1 (centres undefined)    inactive
COc1c2c(cc3c1C1(O)Cc4ccc5c(c4C[N+]1(C)CC3)OCO5)OCO2 (centres undefined)    inactive
CC(C)(C)C1C=C(Sc2ccccc2)C(=O)O1 (centres undefined)    inactive
COc1ccccc1C1C(Cl)C(=O)N1NC(=O)Cc1ccccc1 (centres undefined)    inactive
COc1ccc(/N=N/C(C(=O)c2ccccc2)C(=O)c2ccccc2)cc1    inactive

// query Which outcome did this test record for the compound C=C(C)[C@@]1(O)O[C@H]2C[C@@]3(C)OC(=CC3=O)/C(C)=C\[C@@H]3OC(=O)[C@@]1(C)[C@H]32 ?
// result inactive

// query Which outcome did this test record for the compound Cc1ccccc1NC(=O)CC(=O)NNC(Sc1ccccc1)c1cc(/N=N/c2ccc(Br)cc2)ccc1O (centres undefined) ?
// result active

// query Which outcome did this test record for the compound COC(=O)[C@@H]1C[C@@H]2c3ccccc3N(S(=O)(=O)c3ccccc3)[C@@H]2N1C(=O)OC ?
// result inactive

// query Which outcome did this test record for the compound O=C(NNC(=S)Nc1cccc(Cl)c1)c1cc(-c2ccccc2)nc2ccccc12 ?
// result inactive

====

Tested on: NCI/ADR-RES
Test: NCI tumour cell line growth inhibition, 48 h
The source made the active and inactive calls. Cut-off read from the data, not from the text of the source: active = GI50 up to about 1.1 µM and inactive = higher.
As shown below, each of these compounds has a reported GI50 value.

Sc1nnc(C23CC4CC(CC(C4)C2)C3)n1-c1ccc(Cl)cc1    15.5 µM (inactive)
CC(=O)N1C(Nc2ccccc2)CCN1c1ccccc1 (stereo not drawn)    9.89 µM (inactive)
COC(=O)/C=C/CC(=O)NS(C)(=O)=O    > 10 µM (inactive)

So, COc1cc(S(=O)(=O)Nc2nc(-c3ccc(N)cc3)cs2)ccc1Cl ? Its GI50 was 89.5 µM (inactive)

So, C[C@]12CC/C(=N\O)C=C1CC[C@@H]1[C@@H]2CC[C@]2(C)C(=N/O)/C(=C/c3ccncc3)C[C@@H]12 ? Its GI50 was 21.2 µM (inactive)

So, CC1C(c2ccccc2)O[B-](F)(c2ccccc2)[NH+]1C (stereo not drawn) ? Its GI50 was > 100 µM (inactive)

So, Cn1c(SCc2ccc(F)cc2)nnc1C12CC3CC(CC(C3)C1)C2 ? Its GI50 was 28.9 µM (inactive)

So, O=C(Nc1nccs1)NS(=O)(=O)n1cnc2ccccc21 ? Its GI50 was > 100 µM (inactive)

So, CC(C)(C)OC/C=C(/CO)[C@@H]1C=C[C@H](O)C1 ? Its GI50 was > 100 µM (inactive)

====

Test system: A498
Experiment: NCI tumour cell line growth inhibition, 48 h
Active and inactive are the calls of the source. Cut-off read from the data, not from the text of the source: active = GI50 up to about 1.1 µM and inactive = higher.
Hi! Could you answer with just one of these? active, inactive

COC(=O)C1(C)CCCC2(C)C3CCC4CC3(C=C4CO)CCC12 (stereo not drawn)    inactive
Cc1ccccc1C(=O)N1CCc2c([nH]c3ccccc23)C1    inactive
Cc1ccc2c(O)cc(-c3ccc4ccccc4c3)nc2n1    inactive
C/C(=N\NC(N)=S)c1ccc(/C(C)=N/NC(N)=S)cc1    inactive
c1cc(C2O[C@H]3CCCN3[C@@H]2c2ccncc2)ccn1 (stereo partly drawn)    inactive
Cc1ccc2c(c1)C(=S)N1CSCC1c1nncn1-2 (stereo not drawn)    inactive
O/N=C(\CC(O)(C(F)(F)F)C(F)(F)F)c1cccs1    inactive
NC(=O)NC(=O)Nc1ccc(Br)cc1    inactive

// query Which outcome did this test record for the molecule O=C(Nc1sccc1S(=O)(=O)c1ccc(Cl)cc1)C(F)(F)F ?
// result inactive

// query Which outcome did this test record for the molecule O=C(O)CCNc1[nH]cnc2ncnc1-2 ?
// result inactive

// query Which outcome did this test record for the molecule CCCCCCNCCCNc1c2ccccc2nc2cccc([N+](=O)[O-])c12 ?
// result active

// query Which outcome did this test record for the molecule CCOC(=O)C1=C(C)N(NC(=O)Nc2ccccc2)C(=O)C1=P(c1ccccc1)(c1ccccc1)c1ccccc1 ?
// result inactive

====

Tested on: NCI-H460
Test: NCI tumour cell line growth inhibition, 48 h
Active and inactive are the calls of the source. Cut-off read from the data, not from the text of the source: active = GI50 up to about 1.1 µM and inactive = higher.
Hi! Could you answer with just one of these? 1 (active), -1 (inactive)

Example results:
CCOC(=O)c1cc([N+](=O)[O-])cc([N+](=O)[O-])c1Sc1[nH]cnc2ncnc1-2    -1
C=CCNC1=C2C[C@@H](C)C[C@@H](OC)[C@H](OC(=O)CCN(C)C)[C@H](C)/C=C(\C)[C@@H](OC(N)=O)[C@H](OC)/C=C\C=C(/C)C(=O)NC(=CC1=O)C2=O    1
C=C(C)[C@@]1(O)O[C@H]2C[C@@]3(C)OC(=CC3=O)/C(C)=C\[C@@H]3OC(=O)[C@@]1(C)[C@H]32    -1

Shift focus to the following entry.
// query Which outcome did this test record for the compound COc1ccc(CCc2cc(OC)c(OC)c(OC)c2)cc1 ?
// result 1
